# systemTested: human follicle-stimulating hormone receptor (FSHR) (Homo sapiens, UniProt P23945)
# Construct: host or cells: CHO-K1
# Sequence (P23945 18-695): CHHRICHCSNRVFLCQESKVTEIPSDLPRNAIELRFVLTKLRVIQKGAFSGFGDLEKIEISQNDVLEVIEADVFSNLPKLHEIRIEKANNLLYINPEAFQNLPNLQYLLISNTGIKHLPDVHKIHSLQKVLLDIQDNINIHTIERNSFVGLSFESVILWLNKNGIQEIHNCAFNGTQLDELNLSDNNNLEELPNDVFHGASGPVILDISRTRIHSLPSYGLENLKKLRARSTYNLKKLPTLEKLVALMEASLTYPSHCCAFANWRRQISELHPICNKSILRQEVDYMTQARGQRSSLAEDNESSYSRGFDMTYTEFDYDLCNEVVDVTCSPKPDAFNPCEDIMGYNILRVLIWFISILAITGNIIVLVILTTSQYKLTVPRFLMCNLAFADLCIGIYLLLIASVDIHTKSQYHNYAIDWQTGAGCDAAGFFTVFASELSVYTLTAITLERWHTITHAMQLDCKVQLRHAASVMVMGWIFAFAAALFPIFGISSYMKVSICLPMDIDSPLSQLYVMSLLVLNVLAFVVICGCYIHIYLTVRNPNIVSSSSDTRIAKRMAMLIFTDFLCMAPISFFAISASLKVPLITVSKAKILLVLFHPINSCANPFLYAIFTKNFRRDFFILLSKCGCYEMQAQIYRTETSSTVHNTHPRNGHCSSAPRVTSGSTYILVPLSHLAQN
# testDetails: Measurement of agonist cAMP production by activation of human FSHR
# Type: cell-based
# measurementSetup: hFSHR Agonist cAMP EC50, CHO-K1 human FSHR cells, 30 minutes at 37° C., HTRF cAMP kit
pEC50: −log10 of the molar value.
measureName: pEC50

COc1cc2c(cc1-c1cncc(NC(=O)CCNC(=O)[C@@H](CCCCNC(=O)CN3CCN(CC(=O)O)CCN(CC(=O)O)CCN(CC(=O)O)CC3)NC(=O)CN3CCN(CCS(=O)(=O)O)CC3)c1)-c1c(c(C(=O)N3CCOCC3(C)C)nn1-c1cc(F)cc(F)c1)CO2 = < 7.00
COc1cc2c(cc1-c1cccc(NC(=O)CCC(=O)NCCCC[C@@H](NC(=O)[C@@H](C)NC(=O)[C@@H](CCC(=O)O)NC(=O)[C@@H](C)NC(=O)[C@@H](CCC(=O)O)NC(=O)[C@@H](C)NC(=O)CN3CCN(CC(=O)O)CCN(CC(=O)O)CCN(CC(=O)O)CC3)C(=O)N[C@H](C)C(N)=O)c1)-c1c(c(C(=O)N3CCOCC3(C)C)nn1-c1cc(Cl)cc(Cl)c1)CO2 = 7.00 to 8.00
COc1cc2c(cc1-c1cccc(NC(=O)CCC(=O)NC3CCN(C(=O)CN4CCN(CC(=O)O)CCN(CC(=O)O)CCN(CC(=O)O)CC4)CC3)c1)-c1c(c(C(=O)N3CCOCC3(C)C)nn1-c1cc(Cl)cc(Cl)c1)CO2 = > 8.00
COc1cc2c(cc1-c1cccc(NC(=O)CCOCCOCCOCCOCCNC(=O)CN3CCN(CC(=O)O)CCN(CC(=O)O)CCN(CC(=O)O)CC3)c1)-c1c(c(C(=O)N3CCOCC3(C)C)nn1-c1cc(Cl)cc(Cl)c1)CO2 [Compound 17B] = > 8.00
